EXPERIMENT: Solution state photophysical studies (absorption, emission, lifetime) in DMSO
Type: physicochemical
RUN CONDITIONS: in DMSO at RT
OBSERVATION TYPE: Rel. QY

Ask | Give the reported value of Rel. QY for this record: COc1ccc(-c2cccc3c4cc(OC)cc(OC)c4cc(-c4ccccc4)[n+]23)cc1.O=S(=O)([O-])C(F)(F)F
Reply | 0.125

Ask | Please give the documented Rel. QY of COc1ccc(-c2cccc3c4cc(C)cc(C)c4cc(-c4ccccc4)[n+]23)cc1.O=S(=O)([O-])C(F)(F)F
Reply | 0.024

Ask | Identify the reported Rel. QY for the following entry. COc1ccc(-c2cccc3c4cc(-c5cccc6ccccc56)ccc4cc(-c4ccccc4)[n+]23)cc1.O=S(=O)([O-])C(F)(F)F
Reply | 0.032

---

EXPERIMENT: Solution state photophysical studies (absorption, emission, lifetime) in DMSO
Format: physicochemical
RUN CONDITIONS: in DMSO at RT
OBSERVATION TYPE: Rel. QY
Returns: the value as a bare number; no unit string appended.

Ask | Annotate the molecule COc1ccc(-c2cccc3c4ccccc4cc(-c4cc(OC)cc(OC)c4)[n+]23)cc1.O=S(=O)([O-])C(F)(F)F with its measured Rel. QY.
Reply | 0.006

Ask | # return recorded Rel. QY for input COc1ccc(-c2cccc3c4cc(C)ccc4cc(-c4ccccc4)[n+]23)cc1.O=S(=O)([O-])C(F)(F)F
Reply | 0.020

Ask | Give the value of Rel. QY reported for the following: COc1ccc(-c2cccc3c4cc(-c5ccccc5)ccc4cc(-c4ccccc4)[n+]23)cc1.O=S(=O)([O-])C(F)(F)F
Reply | 0.036

Ask | Indicate the recorded Rel. QY value for this molecule: O=S(=O)([O-])C(F)(F)F.c1ccc(-c2cc3ccccc3c3cccc(-c4cc5ccccc5c5ccccc45)[n+]23)cc1
Reply | 0.220

---

Kindly state Rel. QY for each of the entries shown.
EXPERIMENT: Solution state photophysical studies (absorption, emission, lifetime) in DMSO
Type: physicochemical
RUN CONDITIONS: in DMSO at RT
The answer should be written as a number, with no unit following it.

Ask | Identify the reported Rel. QY for the following entry. COc1ccc(-c2cccc3c4ccccc4cc(-c4cccc5ccccc45)[n+]23)cc1.O=S(=O)([O-])C(F)(F)F [2aa]
Reply | 0.062

Ask | Identify measured Rel. QY associated with COc1ccc(-c2cccc3c4ccc(C)cc4cc(-c4ccccc4)[n+]23)cc1.O=S(=O)([O-])C(F)(F)F [2r]
Reply | 0.017

Ask | Note Rel. QY for the molecule shown: O=S(=O)([O-])C(F)(F)F.c1ccc(-c2cccc3c4ccccc4cc(-c4ccccc4)[n+]23)cc1 [2a]
Reply | 0.015

Ask | Specify reported Rel. QY for the molecule shown: COc1ccc(-c2cccc3c4ccccc4cc(-c4ccccc4)[n+]23)cc1.O=S(=O)([O-])C(F)(F)F [2f]
Reply | 0.018

---

EXPERIMENT: Solution state photophysical studies (absorption, emission, lifetime) in DMSO
Type: physicochemical
RUN CONDITIONS: in DMSO at RT
Procedure: For solution state photophysical studies (absorption, emission and lifetime) stock for all compounds (1 mM concentration) were prepared in DMSO solvent. For the measurement, the required volume was added from the stock solution in 1 mL solution to make it final concentration as 10 μM. […] The AIE images were taken in 5 ml vials which were placed on a handled UV (excitation wavelength 365 nm) instrument. […] Solution Spectra were measured in HORIBA Jobin Yvon Fluorolog using 1 cm path length quartz cuvette. […]
OBSERVATION TYPE: Lifetime (ns)
Report as a plain number; the unit ns is understood.

Ask | Annotate the molecule O=S(=O)([O-])C(F)(F)F.c1ccc(-c2cccc3c4ccccc4cc(-c4ccccc4)[n+]23)cc1 with its measured Lifetime.
Reply | 5.84

Ask | Consider the molecule COc1ccc(-c2cccc3c4cc(C)cc(C)c4cc(-c4ccccc4)[n+]23)cc1.O=S(=O)([O-])C(F)(F)F and give its recorded Lifetime.
Reply | 4.49

Ask | Identify the reported Lifetime for the following entry. COc1ccc(-c2cccc3c4cc(C)ccc4cc(-c4ccccc4)[n+]23)cc1.O=S(=O)([O-])C(F)(F)F
Reply | 3.6

Ask | Supply reported Lifetime belonging to this molecule: COc1ccc(-c2cccc3c4ccc(C)cc4cc(-c4ccccc4)[n+]23)cc1.O=S(=O)([O-])C(F)(F)F
Reply | 5.93

Ask | Please look at this molecule and report its Lifetime: COc1ccc(-c2cccc3c4cc(-c5cccc6ccccc56)ccc4cc(-c4ccccc4)[n+]23)cc1.O=S(=O)([O-])C(F)(F)F
Reply | 3.38

Ask | Determine from records and report Lifetime for COc1ccc(-c2cccc3c4ccccc4cc(-c4cccc5ccccc45)[n+]23)cc1.O=S(=O)([O-])C(F)(F)F
Reply | 4.09

Ask | Assign Lifetime to the following record: COc1ccc(-c2cccc3c4ccccc4cc(-c4cc(OC)cc(OC)c4)[n+]23)cc1.O=S(=O)([O-])C(F)(F)F
Reply | 5.72

Ask | State its Lifetime for this molecule: COc1ccc(-c2cccc3c4cc(OC)cc(OC)c4cc(-c4ccccc4)[n+]23)cc1.O=S(=O)([O-])C(F)(F)F
Reply | 4.2

Ask | Please give measured Lifetime of the following entry: O=S(=O)([O-])C(F)(F)F.c1ccc(-c2cc3ccccc3c3cccc(-c4cc5ccccc5c5ccccc45)[n+]23)cc1
Reply | 5.19

Ask | Tell me measured Lifetime for COc1ccc(-c2cccc3c4ccccc4cc(-c4ccccc4)[n+]23)cc1.O=S(=O)([O-])C(F)(F)F please.
Reply | 5.32

Ask | For the molecule COc1ccc(-c2cccc3c4cc(-c5ccccc5)ccc4cc(-c4ccccc4)[n+]23)cc1.O=S(=O)([O-])C(F)(F)F , give its reported Lifetime.
Reply | 3.72
